- protocol.details: in vitro
- test.context: human, human plasma
Non-standard residues stand in square brackets, D forms with d. Residues, ends and D or L forms follow the SMILES beside them. Dip = N[C@H](C(=O)O)C(c1ccccc1)c1ccccc1
metric: remaining at 0.5 h, 75 μM

query: Provide one value: measured remaining at 0.5 h, 75 μM of N=C(N)NCCC[C@@H]1NC(=O)[C@H](CCCNC(=N)N)NC(=O)[C@H](CCCNC(=N)N)NC(=O)[C@H](C(c2ccccc2)c2ccccc2)NC(=O)[C@H](Cc2c[nH]c3ccccc23)NC(=O)[C@H](C(c2ccccc2)c2ccccc2)NC(=O)[C@H](CCCNC(=N)N)NC1=O [3b, c[Arg-Arg-Arg-Arg-Dip-Trp-Dip]] (cyclo(RRRR[Dip]W[Dip]))
result: ~82.4%

* * *

- protocol.details: in vitro
- test.context: human, cell viability
Non-standard residues stand in square brackets, D forms with d. Residues, ends and D or L forms follow the SMILES beside them. Dip = N[C@H](C(=O)O)C(c1ccccc1)c1ccccc1
metric: viability at 24 h, 100 μg/mL

query: Provide one value: measured viability at 24 h, 100 μg/mL of N=C(N)NCCC[C@@H]1NC(=O)[C@H](CCCNC(=N)N)NC(=O)[C@H](CCCNC(=N)N)NC(=O)[C@H](C(c2ccccc2)c2ccccc2)NC(=O)[C@H](Cc2c[nH]c3ccccc23)NC(=O)[C@H](C(c2ccccc2)c2ccccc2)NC(=O)[C@H](CCCNC(=N)N)NC1=O [3b, c[Arg-Arg-Arg-Arg-Dip-Trp-Dip]] (cyclo(RRRR[Dip]W[Dip]))
result: > 70%

* * *

- protocol.details: in vitro
- test.context: human, human plasma
Non-standard residues stand in square brackets, D forms with d. Residues, ends and D or L forms follow the SMILES beside them. Dip = N[C@H](C(=O)O)C(c1ccccc1)c1ccccc1
metric: remaining at 12 h, 75 μM

query: Provide one value: measured remaining at 12 h, 75 μM of N=C(N)NCCC[C@@H]1NC(=O)[C@H](CCCNC(=N)N)NC(=O)[C@H](CCCNC(=N)N)NC(=O)[C@H](C(c2ccccc2)c2ccccc2)NC(=O)[C@H](Cc2c[nH]c3ccccc23)NC(=O)[C@H](C(c2ccccc2)c2ccccc2)NC(=O)[C@H](CCCNC(=N)N)NC1=O [3b, c[Arg-Arg-Arg-Arg-Dip-Trp-Dip]] (cyclo(RRRR[Dip]W[Dip]))
result: ~52.3%

* * *

- protocol.details: in vitro
- test.context: human, cell viability
Non-standard residues stand in square brackets, D forms with d. Residues, ends and D or L forms follow the SMILES beside them. Dip = N[C@H](C(=O)O)C(c1ccccc1)c1ccccc1
metric: viability at 24 h, 100 μg/mL

query: Provide one value: measured viability at 24 h, 100 μg/mL of N=C(N)NCCC[C@@H]1NC(=O)[C@H](CCCNC(=N)N)NC(=O)[C@H](CCCNC(=N)N)NC(=O)[C@H](C(c2ccccc2)c2ccccc2)NC(=O)[C@H](Cc2c[nH]c3ccccc23)NC(=O)[C@H](C(c2ccccc2)c2ccccc2)NC(=O)[C@H](CCCNC(=N)N)NC1=O [3b, c[Arg-Arg-Arg-Arg-Dip-Trp-Dip]] (cyclo(RRRR[Dip]W[Dip]))
result: > 70%
